The measured values listed here are drawn from patent US6362208B1.

Please go through the items and note down their melting point.

Q: Give reported melting point value for `CC(C)c1cccc(C(C)C)c1NC(=O)CCCCCSc1nc2ccc(CN(C)C)cc2o1`
A: 82 to 84 °C

Q: Complete the entry with melting point for `COC(=O)c1ccc2nc(SCCCCCC(=O)Nc3c(C(C)C)cccc3C(C)C)[nH]c2c1`
A: 190 to 192 °C

Q: Input `COC(=O)c1cccc2nc(SCCCCCC(=O)Nc3c(OC)cc(OC)cc3OC)oc12` , output reported melting point.
A: 136 to 138 °C

Q: Item `CC(C)c1cccc(C(C)C)c1NC(=O)CCCCCSc1nc2c(N(C)C)cccc2o1` : provide melting point
A: 129 to 130 °C

Q: Kindly indicate its recorded melting point. Item: `COC(=O)c1ccc2nc(SCCCCCCCCC(=O)Nc3c(C(C)C)cccc3C(C)C)oc2c1`
A: 122 to 124 °C

Q: Return reported melting point. Input compound: `CC(C)c1cccc(C(C)C)c1NC(=O)CCCCCSc1nc2c(CN(C)C)cccc2o1`
A: 113 to 115 °C

====

Biological target: ACAT in J774 cells (Mus musculus, UniProt Q61263)
Construct: J774 cells or HepG2 cells were inoculated on a 24-well plate; endogenous in cells; host or cells: J774 cells
Sequence (Q61263 1-540): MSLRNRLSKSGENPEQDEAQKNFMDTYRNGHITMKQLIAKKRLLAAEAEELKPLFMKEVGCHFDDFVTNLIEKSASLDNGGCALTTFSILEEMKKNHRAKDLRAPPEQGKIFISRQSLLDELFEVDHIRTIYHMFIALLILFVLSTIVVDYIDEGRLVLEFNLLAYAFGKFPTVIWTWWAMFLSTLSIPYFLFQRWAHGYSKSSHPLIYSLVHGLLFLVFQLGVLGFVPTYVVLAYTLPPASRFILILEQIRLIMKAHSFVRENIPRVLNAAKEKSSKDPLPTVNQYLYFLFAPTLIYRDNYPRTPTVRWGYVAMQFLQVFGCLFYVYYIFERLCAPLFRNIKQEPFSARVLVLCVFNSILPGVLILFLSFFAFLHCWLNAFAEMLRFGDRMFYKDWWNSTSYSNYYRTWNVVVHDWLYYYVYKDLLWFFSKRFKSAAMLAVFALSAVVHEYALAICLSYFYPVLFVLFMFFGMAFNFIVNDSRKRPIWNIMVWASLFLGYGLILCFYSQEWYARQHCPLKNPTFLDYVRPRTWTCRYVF
Experiment: ACAT inhibitory action (anti-foaming action) in J774 cells, cholesterol ester formation
Type: cell-based
Conditions: ratio HepG2 / J774
The label Condition met is reserved for IC50 (HepG2)/IC50 (J774) strictly under 7; Condition not met covers values equal to or above it.

Q: Regarding CC(C)c1cccc(C(C)C)c1NC(=O)CCCCCSc1nc2c(N(C)C)cccc2o1 [Example 28] , kindly confirm whether its IC50 (HepG2)/IC50 (J774) is beneath 7.
A: Condition met

Q: Dear colleague, could you confirm whether IC50 (HepG2)/IC50 (J774) of COC(=O)c1cccc2nc(SCCCCCC(=O)Nc3c(C(C)C)cccc3C(C)C)oc12 [Example 46] falls below 7? Thanks.
A: Condition not met

Q: Does this molecule meet the criterion IC50 (HepG2)/IC50 (J774) < 7? CC(C)c1cccc(C(C)C)c1NC(=O)CCCCCSc1nc2cnccc2[nH]1 [Example 6]
A: Condition met

Q: Dear colleague, could you confirm whether IC50 (HepG2)/IC50 (J774) of CC(C)c1cccc(C(C)C)c1NC(=O)C(C)(C)CCCOc1ccc2c(c1)C=C(c1nccn1C)C(CCc1ccc(F)cc1)O2 (centres unmarked) [Control 1, reference compound] falls below 7? Thanks.
A: Condition not met

Q: # TODO verify IC50 (HepG2)/IC50 (J774) < 7 strictly for this molecule: CC(C)c1cccc(C(C)C)c1NC(=O)CCCCCSc1nc2ncccc2o1 [Example 1]
A: Condition met

Q: In plain terms, does CC(C)c1cccc(C(C)C)c1NC(=O)CCCCCCCCSc1nc2cccc(C(F)(F)F)c2o1 [Example 75] come in under 7 for IC50 (HepG2)/IC50 (J774)?
A: Condition not met

Q: # strict comparison: is reported IC50 (HepG2)/IC50 (J774) < 7? input = CC(C)c1cccc(C(C)C)c1NC(=O)CCCCCSc1nc2cc(OCc3ccccc3)ccc2o1 [Example 29]
A: Condition not met

Q: Report whether reported IC50 (HepG2)/IC50 (J774) is lower than 7 (strictly) for CC(C)c1cccc(C(C)C)c1NC(=O)CCCCCSc1nc2cccc(-c3cc[nH]n3)c2o1 [Example 88]
A: Condition met
